biological target: Ec Hfq WT (Escherichia coli, UniProt P0A6X3 1-102); assay: fluorescence polarization
Sequence (P0A6X3 whole entry): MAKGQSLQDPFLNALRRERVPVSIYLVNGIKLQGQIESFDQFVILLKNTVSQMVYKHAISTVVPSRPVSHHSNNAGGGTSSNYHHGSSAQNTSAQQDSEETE
Quantity kind: Kd (nM)
The figure you give is taken to be in nM; do not add the unit.

Please give measured Kd of the following entry: UUUUUU (ssRNA) [U6 (5'-fluorescein)]
3.3
